Sourced from patent US6737383B1

Entries and their measured S. Flatsedge plant response rating follow.
tested on: smallflower flatsedge; test: Test B flood test smallflower flatsedge; type: in vivo, Cyperus difformis; details: Rate 62 g/ha, Postemergence section, flood test species; scale of 0 to 10 where 0 is no effect and 10 is complete control
Just the number, please, no unit after it.

Some molecules with recorded S. Flatsedge plant response rating:
Item C=CCn1c(=O)on(C(=O)N(c2ccc(Cl)cc2)C(C)C)c1=O : provide S. Flatsedge plant response rating
0

Item CC(C)c1noc(C(C)C)c1-n1c(=O)on(C(=O)N(c2ccc(F)cc2)C(C)C)c1=O : provide S. Flatsedge plant response rating
0

Item C=CCn1c(=O)on(C(=O)N(c2ccc(F)cc2F)C(C)C)c1=O : provide S. Flatsedge plant response rating
0

Further cases:
Item Cc1nn(C)c(Cl)c1-n1c(=O)on(C(=O)N(c2ccccc2)C(C)C)c1=O : provide S. Flatsedge plant response rating
3

Item CC(C)N(C(=O)n1oc(=O)n(C(C)C)c1=O)c1ccc(Cl)cc1 : provide S. Flatsedge plant response rating
0

Item CCn1c(=O)on(C(=O)N(c2ccccc2)C(C)C)c1=O : provide S. Flatsedge plant response rating
0
